Test: Pharmacokinetics of ZA in pig serum after IV or SC infusion with or without rHuPH20 (LC-MS-MS, non-compartmental analysis)
Format: in vivo
Conditions: female, Yorkshire, pig, serum, sc, […], pig; SC ZA […], no rHuPH20 (Study Group 2); n=4; read-out: SC Bioavailability (0-8 h), median
MEASURED ENDPOINT: bioavailability (%)

1. O=P(O)(O)C(O)(Cn1ccnc1)P(=O)(O)O [ZA]; 86.9

---

Test: Phase 1 Stage 1 clinical pharmacokinetics of SC ZA co-administered with rHuPH20
Type: in vivo, human
Conditions: human, serum, sc, […], AUC (0-48 h), Subj 26; ZA […] SC; inf […]; PH20 23088 U
MEASURED ENDPOINT: AUC(0-t) (ng·h/mL)

1. O=P(O)(O)C(O)(Cn1ccnc1)P(=O)(O)O; 150
